This collection of values is drawn from ChEMBL document CHEMBL1146081.

Assay: Half life in Sprague-Dawley rat plasma
Format: ADME, cell-free
Measurement type: half-life (min)
One number for each entry, in min.

O=C(NC1CCOCC1)c1ccc(-c2cc(-c3c[nH]nc3-c3ccccn3)ccn2)cc1	78

Now look at this one.
Q: Quote half-life reported for c1ccc(-c2cc(-c3c[nH]nc3-c3ccccn3)ccn2)cc1 please.
A: 24

====

Kindly supply the reported Vd values for the records listed here.
Assay: Volume of distribution in Sprague-Dawley rat at 2 mg/kg, iv or 4 mg/kg, po
Type: ADME, organism-based
Conditions: in vivo, read-out: Vss
Answers are plain numbers, in L/kg.

c1ccc(-c2cc(-c3c[nH]nc3-c3ccccn3)ccn2)cc1	0.7

Q: Quote Vd reported for O=C(NC1CCOCC1)c1ccc(-c2cc(-c3c[nH]nc3-c3ccccn3)ccn2)cc1 please.
A: 1.4
